The origin of these recorded values is the kinase profiling compilation of Christmann-Franck et al. (2016).

Target: STK38L (human) (UniProt Q9Y2H1)
Sequence (Q9Y2H1 whole entry, looked up): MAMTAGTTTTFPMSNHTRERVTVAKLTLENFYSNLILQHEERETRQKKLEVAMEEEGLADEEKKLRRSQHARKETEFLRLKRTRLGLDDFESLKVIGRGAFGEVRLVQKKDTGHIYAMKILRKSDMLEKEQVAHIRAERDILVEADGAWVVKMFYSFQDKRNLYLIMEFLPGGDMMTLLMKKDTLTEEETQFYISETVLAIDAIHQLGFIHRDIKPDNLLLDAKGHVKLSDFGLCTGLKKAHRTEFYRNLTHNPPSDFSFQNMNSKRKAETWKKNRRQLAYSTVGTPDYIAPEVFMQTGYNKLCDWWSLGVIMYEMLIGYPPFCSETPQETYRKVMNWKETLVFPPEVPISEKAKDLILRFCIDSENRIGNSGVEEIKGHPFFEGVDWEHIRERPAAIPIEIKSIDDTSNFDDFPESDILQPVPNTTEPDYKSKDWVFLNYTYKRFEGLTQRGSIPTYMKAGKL
Assay: KINOMEscan competition binding
Conditions: compound 10.0 µM
For each of the compounds below, state its kinase still bound, per cent of control.
Give a bare numeral; the unit % is implied.

Look up kinase still bound, per cent of control for this compound: CCN1CCN(C(=O)Cc2ccc(Nc3ncc(F)c(Nc4ccc(C(=O)Nc5ccccc5Cl)cc4)n3)cc2)CC1 60

Which kinase still bound, per cent of control value belongs to C=CC(=O)Nc1ccc(CN(C(=O)Nc2c(Cl)c(OC)cc(OC)c2Cl)c2cc(Nc3ccc(N4CCN(C)CC4)cc3)ncn2)cc1 ? 100

# get_value(readout='kinase still bound, per cent of control', item= CCN(CC)CCCCNc1ncc2cc(-c3cc(OC)cc(OC)c3)c(NC(=O)NC(C)(C)C)nc2n1 ) 100

Could you share which kinase still bound, per cent of control value was measured for COc1cc2ncn(-c3cc(OCc4ccccc4C(F)(F)F)c(C(N)=O)s3)c2cc1OC ? 100

Query (compound): COc1ccc(N(C(=O)Oc2c(C)cccc2C)c2ccnc(Nc3ccc(N4CCN(C)CC4)cc3)n2)c(OC)c1 ; field requested: kinase still bound, per cent of control 100

Requested field: kinase still bound, per cent of control. Item: CCN(CC)CCCCNc1ncc2c(n1)N(C)C(=O)N(c1c(Cl)c(OC)cc(OC)c1Cl)C2 100

Consider the compound O=C(Nc1cccc(Nc2ncc(Br)c(NCCc3cnc[nH]3)n2)c1)N1CCCC1 and give its measured kinase still bound, per cent of control. 69

Entry NC(=O)Nc1cc(-c2cccc(F)c2)sc1C(=O)N[C@@H]1CCCNC1 has what kinase still bound, per cent of control? 0

What measured kinase still bound, per cent of control goes with C[C@@H](Oc1cc(-c2cnn(C3CCNCC3)c2)cnc1N)c1c(Cl)ccc(F)c1Cl ? 95

Field request: kinase still bound, per cent of control | item: O=c1cc(N2CCOCC2)oc2c(-c3cccc4c3sc3ccccc34)cccc12 95

Data request, read-out kinase still bound, per cent of control, for Cc1n[nH]c2ccc(-c3cncc(OC[C@@H](N)Cc4c[nH]c5ccccc45)c3)cc12 100

Query (compound): COc1cc(N2CCN(C)CC2)ccc1Nc1ncc2c(n1)N(C)c1ccccc1C(=O)N2C ; field requested: kinase still bound, per cent of control 100

# lookup: kinase still bound, per cent of control of CNC(=O)c1ccc(Nc2cc(Nc3ccccc3S(=O)(=O)C(C)C)c3cc[nH]c3n2)nc1 15

Recorded kinase still bound, per cent of control of N#CCNC(=O)c1ccc(-c2ccnc(Nc3ccc(N4CCOCC4)cc3)n2)cc1 , please. 71

Fill in: kinase still bound, per cent of control of CS(=O)(=O)N1CCN(Cc2cc3nc(-c4cccc5[nH]ncc45)nc(N4CCOCC4)c3s2)CC1 is ___ 100

Consider the compound COc1cc2ncnc(-n3nc(-c4ccccn4)nc3N)c2cc1OC and give its measured kinase still bound, per cent of control. 69

Tell me the measured kinase still bound, per cent of control of CNC(=O)c1cc(Oc2ccc(NC(=O)Nc3ccc(Cl)c(C(F)(F)F)c3)cc2)ccn1 , please. 100

I would be grateful if you could share the reported kinase still bound, per cent of control for COCC(=O)NC/C=C/c1ccc2ncnc(Nc3ccc(Oc4ccc(C)nc4)c(C)c3)c2c1 . 100

What value of kinase still bound, per cent of control has been reported for the following compound? C=CC(=O)Nc1cc(-n2c(=O)ccc3cnc4ccc(-c5cn[nH]c5)cc4c32)ccc1C 100
